experimental.system: IL-17A(FLAG-Tagged): IL-17RA(His-Tagged) (Homo sapiens, UniProt Q16552, K93Q)
Sequence (Q16552 with tags, fused parts or gaps K93Q): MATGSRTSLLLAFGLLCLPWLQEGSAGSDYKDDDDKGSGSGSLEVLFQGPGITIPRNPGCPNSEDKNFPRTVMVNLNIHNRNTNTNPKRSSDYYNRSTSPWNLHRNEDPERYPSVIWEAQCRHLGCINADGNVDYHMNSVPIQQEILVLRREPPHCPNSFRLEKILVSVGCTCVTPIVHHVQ
test.method.notes: IL-17A(FLAG-Tagged): IL-17RA(His-Tagged) Binding Disruption Eu-HTRF Assay
run.conditions: IL-17A/IL-17RA binding disruption, simple average if tested more than once
measured.endpoint: IC50 (nM)
Express the result in nM but write the number alone.

response.value for O=C(CCC(F)(F)F)N[C@@H](c1cnn2cc([C@@H](NC(=O)c3cnnn3C3CC3)C3CCC(F)(F)CC3)nc2c1)C1CC1 [Example 68] (field: IC50) = 150

Noted for CCc1cncc(C(=O)N[C@H](c2cn3ncc([C@H](NC(=O)CCC(F)(F)F)C4CC4)cc3n2)C2CCC(F)(F)CC2)c1 [Example 452] : its IC50 reads 100

compound O=C(CC12CC(F)(C1)C2)N[C@@H](c1cnn2cc([C@@H](NC(=O)c3conc3OCC(F)F)C3CCC(F)(F)CC3)nc2c1)C1CC1 [Example 295] , IC50 observed: 150

Record CCn1ncnc1C(=O)N[C@H](c1cn2ncc([C@H](NC(=O)CCC(F)(F)F)C3CC3)cc2n1)C1CCC(F)(F)CC1 [Example 106] , field IC50: 130
